ASSAY INFO: In vivo pharmacokinetic (PK) studies in rats
Design: species or system Sprague-Dawley (SD) rats
ASSAY CONDITIONS: male, Sprague-Dawley, rat, plasma; 100 mg/kg, PO
ENDPOINT NAME: Tmax (min)
Form entry: value (min) — number only.

// query Dear colleague, I am looking for the recorded Tmax of the following molecule: "Cn1c(=O)ccc2ccc(F)c(OCCNC[C@H]3CN(c4cnc5c(n4)NC(=O)CO5)C(=O)O3)c21"
// result 19.8

###

Tested on: Morganella morganii ATCC 25830
ASSAY INFO: MIC studies in LB Media
Type: cell-based
ASSAY CONDITIONS: ATCC25830, read-out: Minimum Inhibitory Concentration in LB Media, M. mo
Lab note: cut-off is 0.5 µg/mL. Strictly less in MIC is YES. Exactly 0.5 µg/mL or more is NO.

// query Strictly below 0.5 µg/mL in MIC? Cn1c(=O)ccc2nccc(OCCNC[C@H]3CN(c4ccc5c(n4)NC(=O)CO5)C(=O)O3)c21 [Compound 1]
// result NO

// query Strictly below 0.5 µg/mL in MIC? Cn1c(=O)ccc2ccc(F)c(OCCNC[C@@H]3CN(c4cnc5c(n4)NC(=O)CO5)C(=O)O3)c21 [Compound 3]
// result YES

// query Strictly below 0.5 µg/mL in MIC? Cn1c(=O)ccc2ncc(Cl)c(OCCNC[C@H]3CN(c4cnc5c(n4)NC(=O)CO5)C(=O)O3)c21 [Compound 6]
// result NO

// query Strictly below 0.5 µg/mL in MIC? Cn1c(=O)cnc2ccc(F)c(OCCNC[C@H]3CN(c4cnc5c(n4)NC(=O)CS5)C(=O)O3)c21 [Compound 10]
// result YES

// query Strictly below 0.5 µg/mL in MIC? CC(COc1c(F)ccc2ccc(=O)n(C)c12)NC[C@H]1CN(c2cnc3c(n2)NC(=O)CO3)C(=O)O1 (stereo partly drawn) [Compound 4]
// result NO

// query Strictly below 0.5 µg/mL in MIC? Cn1c(=O)cnc2ccc(F)c(OCCNC[C@H]3CN(c4cnc5c(n4)NC(=O)CO5)C(=O)O3)c21 [Compound 7]
// result YES

// query Strictly below 0.5 µg/mL in MIC? Cn1c(=O)cnc2ccc(F)c(OCCNC[C@@H]3CN(c4cnc5c(n4)NC(=O)CO5)C(=O)O3)c21 [Compound 8]
// result YES

// query Strictly below 0.5 µg/mL in MIC? Cn1c(=O)ccc2ccc(F)c(OCCNC[C@H]3CN(c4cnc5c(n4)NC(=O)CO5)C(=O)O3)c21 [Compound 2]
// result YES
